- subject_of_test: α4β7 integrin (Homo sapiens (Human), UniProt P13612+P26010)
- Sequence (P13612 34-1032): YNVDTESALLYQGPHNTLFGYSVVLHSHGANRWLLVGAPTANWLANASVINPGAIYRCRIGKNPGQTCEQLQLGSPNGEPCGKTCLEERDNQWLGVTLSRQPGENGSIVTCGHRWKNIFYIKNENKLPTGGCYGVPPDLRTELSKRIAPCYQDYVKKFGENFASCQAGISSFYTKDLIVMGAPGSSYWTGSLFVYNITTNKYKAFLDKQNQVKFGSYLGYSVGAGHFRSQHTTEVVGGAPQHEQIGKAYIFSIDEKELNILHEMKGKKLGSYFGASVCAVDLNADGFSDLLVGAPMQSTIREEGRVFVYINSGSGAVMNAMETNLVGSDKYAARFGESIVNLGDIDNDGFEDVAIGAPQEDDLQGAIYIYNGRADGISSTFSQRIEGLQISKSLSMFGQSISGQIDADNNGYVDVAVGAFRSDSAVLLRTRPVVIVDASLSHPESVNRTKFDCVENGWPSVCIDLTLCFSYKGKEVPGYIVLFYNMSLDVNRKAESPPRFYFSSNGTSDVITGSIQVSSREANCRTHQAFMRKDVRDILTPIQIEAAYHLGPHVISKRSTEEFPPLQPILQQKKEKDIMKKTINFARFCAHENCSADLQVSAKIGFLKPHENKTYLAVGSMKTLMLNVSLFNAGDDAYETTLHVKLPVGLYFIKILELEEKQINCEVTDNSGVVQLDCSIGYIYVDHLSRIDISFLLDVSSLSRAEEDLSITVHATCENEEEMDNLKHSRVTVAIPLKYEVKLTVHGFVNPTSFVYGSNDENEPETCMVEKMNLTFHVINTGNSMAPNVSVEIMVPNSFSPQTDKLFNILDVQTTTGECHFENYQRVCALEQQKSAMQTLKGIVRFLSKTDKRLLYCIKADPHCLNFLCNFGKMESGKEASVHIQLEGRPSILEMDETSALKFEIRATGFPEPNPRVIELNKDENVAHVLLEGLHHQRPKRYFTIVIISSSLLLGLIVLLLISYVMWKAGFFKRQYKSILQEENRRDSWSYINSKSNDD
- Sequence (P26010 20-798): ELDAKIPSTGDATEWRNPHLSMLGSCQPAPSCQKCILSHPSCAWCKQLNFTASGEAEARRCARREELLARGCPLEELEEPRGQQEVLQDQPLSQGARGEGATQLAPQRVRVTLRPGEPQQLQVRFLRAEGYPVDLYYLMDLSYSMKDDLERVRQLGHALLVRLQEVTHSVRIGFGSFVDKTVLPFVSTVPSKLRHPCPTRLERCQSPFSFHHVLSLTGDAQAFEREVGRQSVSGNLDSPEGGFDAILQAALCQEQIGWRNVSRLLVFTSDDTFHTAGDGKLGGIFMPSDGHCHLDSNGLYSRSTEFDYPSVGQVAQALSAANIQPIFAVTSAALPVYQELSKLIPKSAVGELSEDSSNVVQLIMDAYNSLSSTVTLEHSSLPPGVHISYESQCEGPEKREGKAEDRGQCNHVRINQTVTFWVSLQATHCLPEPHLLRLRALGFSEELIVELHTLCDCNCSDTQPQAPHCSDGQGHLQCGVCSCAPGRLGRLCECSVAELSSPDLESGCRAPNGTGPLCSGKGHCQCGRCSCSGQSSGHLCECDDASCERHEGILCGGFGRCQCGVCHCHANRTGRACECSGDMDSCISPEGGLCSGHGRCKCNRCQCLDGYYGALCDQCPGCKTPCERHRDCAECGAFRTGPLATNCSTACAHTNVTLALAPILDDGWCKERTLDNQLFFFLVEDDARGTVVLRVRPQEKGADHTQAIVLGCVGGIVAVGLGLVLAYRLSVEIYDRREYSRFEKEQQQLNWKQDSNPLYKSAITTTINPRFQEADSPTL
- assay_notes: Integrin Adhesion Assay: Protocol 4 (MAdCAM-coated plate, RPMI-8866 cells with stable LOF mutation of the ITGB1 gene)
- Type: cell-based
- experimental_parameters: Protocol 4; RPMI-8866 cells with LOF mutation of ITGB1, MAdCAM; read-out: Mean IC50 α4β7 KO
Here the recorded IC50 is given for each entry.

Study these solved cases before continuing.
[
  {
    "compound": "CCc1c(CN(C)C)ccc(OC)c1-c1cccc2c(C[C@H](NC(=O)c3c(C)cccc3F)C(=O)O)cccc12 [Compound 1044]",
    "measured_value": "< 10 nM"
  },
  {
    "compound": "O=C(O)[C@H](Cc1cccc2c(-c3nccc4ccc(CCCN5C6CCCC5CC6)cc34)cccc12)NC(=O)C1(C(F)(F)F)CCN(CC(F)(F)F)CC1 [Compound 744]",
    "measured_value": "< 10 nM"
  },
  {
    "compound": "O=C(O)[C@H](Cc1cccc2c(-c3ncc(CN4CC5(CC5)C4)c4ccccc34)cccc12)NC(=O)C1(C(F)(F)F)CCN(CC(F)(F)F)CC1 [Compound 887]",
    "measured_value": "< 10 nM"
  }
]

IC50 value, target or system α4β7 integrin (Homo sapiens (Human), UniProt P13612+P26010), for O=C(O)[C@H](Cc1cccc2c(-c3ncc(CN4CCC5(CC4)CC5)c4ccccc34)cccc12)NC(=O)C1(C(F)(F)F)CCN(CC(F)(F)F)CC1 [Compound 883] : < 10 nM

IC50 value, target or system α4β7 integrin (Homo sapiens (Human), UniProt P13612+P26010), for COc1cccc(CCCN2CCC(F)(F)CC2)c1-c1cccc2c(C[C@H](NC(=O)C3(C(F)(F)F)CCN(CC(F)(F)F)CC3)C(=O)O)cccc12 [Compound 742] : 10 to 100 nM

---

- subject_of_test: α4β7 integrin (Homo sapiens (Human), UniProt P13612+P26010)
- assay_notes: Integrin Adhesion Assay: Protocol 4 (MAdCAM-coated plate, RPMI-8866 cells with stable LOF mutation of the ITGB1 gene)
- Type: cell-based
- experimental_parameters: Protocol 4; RPMI-8866 cells with LOF mutation of ITGB1, MAdCAM; read-out: Mean IC50 α4β7 KO
pIC50: −log10 of the molar value.
Here the recorded pIC50 is given for each entry.

Study these solved cases before continuing.
[
  {
    "molecule": "COc1cnc(CN2CCC3(CCCCC3)CC2)c(OC)c1-c1cccc2c(C[C@H](NC(=O)c3c(C)cccc3F)C(=O)O)cccc12",
    "subject_of_test": "α4β7 integrin (Homo sapiens (Human), UniProt P13612+P26010)",
    "measured_value": "> 8.00"
  },
  {
    "molecule": "O=C(O)[C@H](Cc1cccc2c(-c3cccc4c(CN5CCCCC5)cncc34)cccc12)NC(=O)C1(C(F)(F)F)CCN(CC(F)(F)F)CC1",
    "subject_of_test": "α4β7 integrin (Homo sapiens (Human), UniProt P13612+P26010)",
    "measured_value": "7.00 to 8.00"
  },
  {
    "molecule": "COc1ccc(CN2CCCC(C)C2)c(OC)c1-c1cccc2c(C[C@H](NC(=O)C3(C(F)(F)F)CCN(CC(F)(F)F)CC3)C(=O)O)cccc12 (stereo partly drawn)",
    "subject_of_test": "α4β7 integrin (Homo sapiens (Human), UniProt P13612+P26010)",
    "measured_value": "> 8.00"
  },
  {
    "molecule": "O=C(O)[C@H](Cc1cccc2c(-c3ncccc3CN3CCCCC3)cccc12)NC(=O)C1(C(F)(F)F)CCN(CC(F)(F)F)CC1",
    "subject_of_test": "α4β7 integrin (Homo sapiens (Human), UniProt P13612+P26010)",
    "measured_value": "7.00 to 8.00"
  },
  {
    "molecule": "O=C(O)[C@H](Cc1cccc2c(-c3ncc(CN4CCC4)c4ccccc34)cccc12)NC(=O)C1(C(F)(F)F)CCN(CC(F)(F)F)CC1",
    "subject_of_test": "α4β7 integrin (Homo sapiens (Human), UniProt P13612+P26010)",
    "measured_value": "> 8.00"
  }
]

Moving on to the next molecule.
Sample O=C(O)[C@H](Cc1cccc2c(-c3ncc(CN4CCC5(CCCCC5)CC4)c4ccccc34)cccc12)NC(=O)C1(C(F)(F)F)CCN(CC(F)(F)F)CC1 ; pIC50 observed: 7.00 to 8.00

---

Here the recorded IC50 is given for each entry.
- subject_of_test: α4β7 integrin (Homo sapiens (Human), UniProt P13612+P26010)
- assay_notes: Integrin Adhesion Assay: Protocol 4 (MAdCAM-coated plate, RPMI-8866 cells with stable LOF mutation of the ITGB1 gene)
- Assay type: cell-based
- experimental_parameters: Protocol 4; RPMI-8866 cells with LOF mutation of ITGB1, MAdCAM; read-out: Mean IC50 α4β7 KO

[
  {
    "molecule": "O=C(O)[C@H](Cc1cccc2c(-c3ccc(CN4CCCCC4)cn3)cccc12)NC(=O)C1(C(F)(F)F)CCN(CC(F)F)CC1",
    "measured_value": "10 to 100 nM"
  },
  {
    "molecule": "COc1cc(CN2CCC(F)(F)C2)cc(OC)c1-c1cccc2c(C[C@H](NC(=O)C3(C(F)(F)F)CCN(CC(F)(F)F)CC3)C(=O)O)cccc12",
    "measured_value": "< 10 nM"
  },
  {
    "molecule": "COc1ccc(CN2CCC(F)(F)CC2)c(C(F)(F)F)c1-c1cccc2c(C[C@H](NC(=O)c3c(C)cccc3F)C(=O)O)cccc12",
    "measured_value": "100 to 1000 nM"
  },
  {
    "molecule": "COc1cc(C(F)(F)F)cc(CN2CCCCC2)c1-c1cccc2c(C[C@H](NC(=O)c3c(C)cccc3F)C(=O)O)cccc12",
    "measured_value": "< 10 nM"
  },
  {
    "molecule": "O=C(O)[C@H](Cc1cccc2c(-c3ncc(CN4CC(F)C4)c4ccccc34)cccc12)NC(=O)C1(C(F)(F)F)CCN(CC(F)(F)F)CC1",
    "measured_value": "10 to 100 nM"
  }
]

IC50 value, target or system α4β7 integrin (Homo sapiens (Human), UniProt P13612+P26010), for O=C(O)[C@H](Cc1cccc2c(-c3ncc(CCN4CCCCC4)c4ccccc34)cccc12)NC(=O)C1(C(F)(F)F)CCN(CC(F)(F)F)CC1 : < 10 nM

IC50 value, target or system α4β7 integrin (Homo sapiens (Human), UniProt P13612+P26010), for COc1ccc(CN2CC3CCCCC3C2)c(OC)c1-c1cccc2c(C[C@H](NC(=O)C3(C(F)(F)F)CCN(CC(F)(F)F)CC3)C(=O)O)cccc12 (stereo partly drawn) : < 10 nM

---

- subject_of_test: α4β7 integrin (Homo sapiens (Human), UniProt P13612+P26010)
- assay_notes: Integrin Adhesion Assay: Protocol 4 (MAdCAM-coated plate, RPMI-8866 cells with stable LOF mutation of the ITGB1 gene)
- Type: cell-based
- experimental_parameters: Protocol 4; RPMI-8866 cells with LOF mutation of ITGB1, MAdCAM; read-out: Mean IC50 α4β7 KO
pIC50: −log10 of the molar value.
measured_quantity: pIC50

Study these solved cases before continuing.
[
  {
    "smiles": "COc1cc(CN2CCCCC2)cc(C(F)(F)F)c1-c1cccc2c(C[C@H](NC(=O)c3c(C)cccc3F)C(=O)O)cccc12",
    "pIC50": "> 8.00"
  },
  {
    "smiles": "COc1cc(C(F)(F)F)cc(CCN2CCCCC2)c1-c1cccc2c(C[C@H](NC(=O)C3(C(F)(F)F)CCN(CC(F)(F)F)CC3)C(=O)O)cccc12",
    "pIC50": "7.00 to 8.00"
  },
  {
    "smiles": "COc1cccc(CCN2CCC[C@@H](F)C2)c1-c1cccc2c(C[C@H](NC(=O)c3c(C)cccc3F)C(=O)O)cccc12",
    "pIC50": "> 8.00"
  }
]

Sample O=C(O)[C@H](Cc1cccc2c(-c3ncc(CN4CCC5(CCC5)C4)c4ccccc34)cccc12)NC(=O)C1(C(F)(F)F)CCN(CC(F)F)CC1 ; pIC50 observed: > 8.00

Sample Cn1c(=O)c(-c2cccc3c(C[C@H](NC(=O)c4c(F)cccc4F)C(=O)O)cccc23)c(C(F)(F)F)c2cc(CCN3CCCC3)ccc21 ; pIC50 observed: > 8.00

Sample Cc1cc(CN2CCC(C(F)(F)F)CC2)cnc1-c1cccc2c(C[C@H](NC(=O)C3(C(F)(F)F)CCN(C4COC4)CC3)C(=O)O)cccc12 ; pIC50 observed: > 8.00

Sample O=C(O)[C@H](Cc1cccc2c(-c3ncc(CN4CCC[C@@H](F)C4)cc3C3CC3)cccc12)NC(=O)C1(C(F)(F)F)CCN(CC(F)F)CC1 ; pIC50 observed: > 8.00

Sample COc1ccc2c(CN3CCCCC3)ccnc2c1-c1cccc2c(C[C@H](NC(=O)C3(C(F)(F)F)CCN(CC(F)(F)F)CC3)C(=O)O)cccc12 ; pIC50 observed: > 8.00

Sample COc1ccc(CN2CC[C@@H](F)C2)cc1-c1cccc2c(C[C@H](NC(=O)C3(C(F)(F)F)CCN(CC(F)F)CC3)C(=O)O)cccc12 ; pIC50 observed: > 8.00

Sample COc1cccc(CCN2CCC(F)(F)CC2)c1-c1cccc2c(C[C@H](NC(=O)C3(C(F)(F)F)CCN(CC(F)F)CC3)C(=O)O)cccc12 ; pIC50 observed: > 8.00

Sample COc1cccc(CN2CCC(C(F)(F)F)CC2)c1-c1cccc2c(C[C@H](NC(=O)c3c(C)cccc3F)C(=O)O)cccc12 ; pIC50 observed: 7.00 to 8.00

Sample O=C(O)[C@H](Cc1cccc2c(-c3ncc(CN4CCN(C5CC5)CC4)c4ccccc34)cccc12)NC(=O)C1(C(F)(F)F)CCN(CC(F)(F)F)CC1 ; pIC50 observed: > 8.00
